target: T1, PSMA Fab; assay: clonal phage ELISA on captured PSMA Fab; wells pre-incubated with PSMA antigen as competitor
T1 construct: also called Anti-PSMA Fab; 006 PSMA Fab
Where no end group is shown, it is not given here.
Could you label it criterion met if measured Phage binding ELISA signal (Anti-PSMA Fab, with competitor) is 0.1 or higher, and criterion not met otherwise?

Reference set (2 entries):
Binder: FNVMCRPAWMCDFL (cysteine pairing not given here; also: fused to pIII of display bacteriophage, linker and sequence not given here, Clonal phage of the Peptide-180 library; not shown: pIII filament protein of the display bacteriophage) [Phage-2863]
Category: criterion met
--
Binder: VNIRCEPAWMCMGF (cysteine pairing not given here; also: fused to phage pIII, linker not given here, Clonal phage of the Peptide-180 library; not shown: pIII filament protein of the display bacteriophage) [Phage-2850]
Category: criterion met

Task: Hi, just wondering whether VQRMCEPSWMCFGF (cysteine pairing not given here; also: fused to pIII of display bacteriophage, linker and sequence not given here, Clonal phage of the Peptide-180 library; not shown: pIII filament protein of the display bacteriophage) [Phage-2856] shows Phage binding ELISA signal (Anti-PSMA Fab, with competitor) of 0.1 or higher.
Result: criterion not met

Task: Hi, just wondering whether TQAMCKPAWMCQGF (cysteine pairing not given here; also: fused to pIII of display bacteriophage, linker and sequence not given here, Clonal phage of the Peptide-180 library; not shown: pIII filament protein of the display bacteriophage) [Phage-2858] shows Phage binding ELISA signal (Anti-PSMA Fab, with competitor) of 0.1 or higher.
Result: criterion not met

Task: Hi, just wondering whether VHIMCKPAWMCLGF (cysteine pairing not given here; also: fused to pIII of display bacteriophage, linker and sequence not given here, Clonal phage of the Peptide-180 library; the cell for position 10 (c11) is missing in the printed row; not shown: pIII filament protein of the display bacteriophage) [Phage-2854] shows Phage binding ELISA signal (Anti-PSMA Fab, with competitor) of 0.1 or higher.
Result: criterion met

Task: Hi, just wondering whether VMPLCKPAWMCGGF (cysteine pairing not given here; also: fused to pIII of display bacteriophage, linker and sequence not given here, Clonal phage of the Peptide-180 library; not shown: pIII filament protein of the display bacteriophage) [Phage-2852] shows Phage binding ELISA signal (Anti-PSMA Fab, with competitor) of 0.1 or higher.
Result: criterion met

Task: Hi, just wondering whether MLPLCVPAWMCSGF (cysteine pairing not given here; also: fused to pIII of display bacteriophage, linker and sequence not given here, Clonal phage of the Peptide-180 library; not shown: pIII filament protein of the display bacteriophage) [Phage-2853] shows Phage binding ELISA signal (Anti-PSMA Fab, with competitor) of 0.1 or higher.
Result: criterion met
